Data origin: the Immune Epitope Database (IEDB)

Biological target: HLA-B*40:02
Experiment: IEDB peptide-MHC binding, purified MHC/competitive/radioactivity; filed as Kd, often an IC50 or EC50 that approximates it; bounds were set here for any values at or beyond the usual limits of such assays
Settings: source organism: SARS coronavirus Tor2
value-type: Kd (µM)
Number only, in µM; omit the unit.

KDYMSLSEQL    5.78
VETFYPKLQA    12.6

Pending sequence:
Challenge: Hi! What's the reported Kd for `AEIVDTVSAL` on HLA-B*40:02?
Response given: 2.57

###

Molecular target: HLA-A*02:06
Assay: IEDB peptide-MHC binding, purified MHC/competitive/radioactivity; filed as Kd, often an IC50 or EC50 that approximates it; bounds were set here for any values at or beyond the usual limits of such assays
Conditions: source organism: Vaccinia virus WR
value-type: pKd
Value format note: pKd is -log10 of concentration (mol/L); just state the number.

RVKQWVMDT    4.87

Challenge: Hi! What's the reported pKd for `VILFIMFMLI` on HLA-A*02:06?
Response given: 5.85

Challenge: Hi! What's the reported pKd for `AVLSEYETMV` on HLA-A*02:06?
Response given: 7.63

Challenge: Hi! What's the reported pKd for `YLSKEDRII` on HLA-A*02:06?
Response given: 4.98

Challenge: Hi! What's the reported pKd for `RTRCKYVGCT` on HLA-A*02:06?
Response given: 4.94

Challenge: Hi! What's the reported pKd for `SMMVILPDKI` on HLA-A*02:06?
Response given: 8.25

Challenge: Hi! What's the reported pKd for `ILANERYRSA` on HLA-A*02:06?
Response given: 5.11

Challenge: Hi! What's the reported pKd for `FMYTKHSML` on HLA-A*02:06?
Response given: 6.65

Challenge: Hi! What's the reported pKd for `FVSTMPVET` on HLA-A*02:06?
Response given: 5.81

Challenge: Hi! What's the reported pKd for `GVEVRYIDI` on HLA-A*02:06?
Response given: 4.99

Challenge: Hi! What's the reported pKd for `STVDVRNIVT` on HLA-A*02:06?
Response given: 5.80

Challenge: Hi! What's the reported pKd for `SLALKNSQA` on HLA-A*02:06?
Response given: 4.72

Challenge: Hi! What's the reported pKd for `IIGEPIIVA` on HLA-A*02:06?
Response given: 5.87

Challenge: Hi! What's the reported pKd for `GMSIVCIVA` on HLA-A*02:06?
Response given: 5.35

Challenge: Hi! What's the reported pKd for `IVAAVIIMA` on HLA-A*02:06?
Response given: 5.45

###

Target: HLA-B*44:02
Test: IEDB peptide-MHC binding, purified MHC/competitive/radioactivity; filed as Kd, often an IC50 or EC50 that approximates it; bounds were set here for any values at or beyond the usual limits of such assays
Settings: source organism: SARS coronavirus Tor2
pKd: −log10 of the molar value.
pKd: recorded values

VETFYPKLQA    ≤ 4.15

Challenge: Hi! What's the reported pKd for `TEGLCVDIPG` on HLA-B*44:02?
Response given: ≤ 4.36

Challenge: Hi! What's the reported pKd for `KDYMSLSEQL` on HLA-B*44:02?
Response given: ≤ 4.59

Challenge: Hi! What's the reported pKd for `KETLYRIDG` on HLA-B*44:02?
Response given: ≤ 4.24

Challenge: Hi! What's the reported pKd for `IDYVPLKSAT` on HLA-B*44:02?
Response given: ≤ 4.40

###

pKd: recorded values
Target: HLA-A*02:06
Experiment: IEDB peptide-MHC binding, purified MHC/competitive/radioactivity; filed as Kd, often an IC50 or EC50 that approximates it; bounds were set here for any values at or beyond the usual limits of such assays
Settings: source organism: Vaccinia virus WR
Value format note: pKd is -log10 of concentration (mol/L); just state the number.

Solved entries (count: 5):
ELKHGLLDSI    5.87
IILFQNNDI    4.92
SVDAMIHKT    4.97
IVNTTYDFL    5.52
FISIYSRPKI    6.40

Challenge: Which measured pKd value corresponds to `NMINKLYGYA` ?
Response given: 6.86

Challenge: Which measured pKd value corresponds to `FLFWFLKSGA` ?
Response given: 7.64

Challenge: Which measured pKd value corresponds to `SIDHCSSFI` ?
Response given: 6.70

###

Target: HLA-A*02:06
Assay: IEDB peptide-MHC binding, purified MHC/competitive/radioactivity; filed as Kd, often an IC50 or EC50 that approximates it; bounds were set here for any values at or beyond the usual limits of such assays
Details: source organism: Vaccinia virus WR
Kd: recorded values

Solved entries (count: 2):
CLEAKTHFST    ≥ 69.8 µM
EIARIENEM    ≥ 77.1 µM

Challenge: Which measured Kd value corresponds to `PLTGNNTITT` ?
Response given: ≥ 69.8 µM

Challenge: Which measured Kd value corresponds to `TIEDDKIVTM` ?
Response given: ≥ 26.1 µM

Challenge: Which measured Kd value corresponds to `LTDVEKRIL` ?
Response given: ≥ 77.1 µM

Challenge: Which measured Kd value corresponds to `PVIVPDIKL` ?
Response given: ≥ 51.2 µM

Challenge: Which measured Kd value corresponds to `KTEHCDDFM` ?
Response given: 2.52 µM

Challenge: Which measured Kd value corresponds to `MVIENGILKK` ?
Response given: ≥ 69.8 µM

Challenge: Which measured Kd value corresponds to `DILQMREIIT` ?
Response given: 17.7 µM

Challenge: Which measured Kd value corresponds to `VLQQNNSFI` ?
Response given: 8.68 µM
